- System: Yellow Fever Mosquito (Aedes aegypti, AEDSAE)
- ASSAY OVERVIEW: Bioassay on Yellow Fever Mosquito (YFM) larvae, 96-well plate
- Assay type: in vivo
- MEASUREMENT CONDITIONS: 4000 ppm DMSO master solution diluted, about 1 day-old larvae, room temperature, scored after 3 days
MEASURED PROPERTY: YFM rating, % Control (or Mortality)

Take a look at these entries with their results.
[[record]]
chemical_structure = "COc1ccccc1N1CCN/C1=N\\C(=O)Nc1ccc(-c2ncn(-c3ccc(OC(F)(F)F)cc3)n2)cc1"
test_result = "A (80-100)"

[[record]]
chemical_structure = "Cc1ccc(N/C(N)=N/C(=O)Nc2ccc(-c3ncn(-c4ccc(OC(F)(F)F)cc4)n3)cc2)c(C)c1"
test_result = "A (80-100)"

[[record]]
chemical_structure = "COc1ccc(N/C(N)=N/C(=O)Nc2ccc(-c3ncn(-c4ccc(OC(F)(F)F)cc4)n3)cc2)c(C)c1"
test_result = "A (80-100)"

[[record]]
chemical_structure = "CCc1ccccc1N1CCN/C1=N\\C(=O)Nc1ccc(-c2ncn(-c3ccc(OC(F)(F)F)cc3)n2)cc1"
test_result = "A (80-100)"

[[record]]
chemical_structure = "Cc1ccccc1N/C(N)=N/C(=O)Nc1ccc(-c2ncn(-c3ccc(OC(F)(F)F)cc3)n2)cc1"
test_result = "A (80-100)"


Batch of 2 molecules: report YFM rating, % Control (or Mortality) for each.
1. COc1cccc(N2CCN/C2=N\C(=O)Nc2ccc(-c3ncn(-c4ccc(OC(F)(F)F)cc4)n3)cc2)c1
2. Cc1ccc(C)c(N/C(N)=N/C(=O)Nc2ccc(-c3ncn(-c4ccc(OC(F)(F)F)cc4)n3)cc2)c1

# output
1: A (80-100); 2: A (80-100)
